The measured values listed here are drawn from patent US9370519B2.

Each entry below carries its recorded melting point.
Assay readout: melting point

INSERT INTO results (input_smiles, measured_value) VALUES
  ('OCc1ccc2cc1OCCOCCNc1ccn3ncc-2c3n1', '> 300 °C'),
  ('CN1CCC(C(=O)N2CCOCCNc3ccn4ncc(c4n3)-c3cccc2c3)CC1', '> 300 °C'),
  ('NC(=O)c1ccc2cc1OCCNCCNc1ccn3ncc-2c3n1', '> 300 °C'),
  ('CN(C)CCNC(=O)N1CCNCCOc2cccc(c2)-c2cnn3ccc1nc23', '> 300 °C'),
  ('O=C1c2cccc(c2)-c2cnn3ccc(nc23)NCCNCCN1CCO', '271.6 °C');
